These measurements were taken from paper PMC10288853.

- protocol.notes: Plasma pharmacokinetics by LC-MS/MS
- assay.setup: human, plasma, oral, Median AUC0–8hr [Min; Max], plasma binimetinib; Cycle 1 Day 1 (C1D1); Dose Level 1: AEB071 150 mg bid and MEK162 45 mg bid
readout.type: AUC(0-t) (ng·h/mL)
Express it in ng·h/mL; write the number only.

Entry Cn1cnc2c(F)c(Nc3ccc(Br)cc3F)c(C(=O)NOCCO)cc21 [binimetinib] — recorded AUC(0-t) = 1540
